# TARGET OR SYSTEM: SARS-CoV-2 spike protein (wild type), spike protein trimer (SARS-CoV-2, UniProt P0DTC2 14-1208)
MEASURED QUANTITY: Kd (nM)

BINDER	MEASURED QUANTITY	ASSAY RESULT
anti-SARS-CoV-2 antibody 923 (antibody, V domains shown) VH: EVQLVESGGGVVRPGGSLRLSCAASGFIFDDYDMTWVRQAPGKGLEWVSGISWNGGNTGYADSVKGRFTISRDNAKNSLYLQMNSLRAEDTALYHCAVIMSPIPRYSGYDWAGGAFDIWGQGTMVTVSS VL: SSELTQDPAVSVALGQTVRITCQGDSLRSYYASWYQQKPGQVPILVIYDKNNRPSGIPDRFSGSSSGNTASLTITGAQAEDEADYYCNSRDSSGNAVVFGGGTKLTVL	Kd	0.035
anti-SARS-CoV-2 antibody 1118 (antibody, V domains shown) VH: EVQLVESGGGLVQPGGSLRLSCAASGFRFSNYEMNWVRQAPGKGLEWVSYISSTGGSIFYADSVKGRFTISRGDAKNSVYLQMNSLRAEDTAVYYCARAMYYYGSGTLDYWGQGTLVTVSS VL: DIQMTQSPSSLSASVGDRVTITCRASQSISRFLNWYQQKPGTAPKLLIYDVSSLQSGVPTRFSGSGSGTDFTLTISSLQPEDFATYYCQQSYTTPPAFGPGTRVDIK	Kd	0.223
anti-SARS-CoV-2 antibody 1027 (antibody, V domains shown) VH: EVQLVESGGGLVQPGGSLRLSCAASGFTVSSNYMSWVRQAPGKGLEWVSIIYSGGSTFYADSVKGRFTISRDSSKNTLYLQMSSLRAEDTAVYYCARDLDYYGMDVWGQGTTVTVSS VL: DIQLTQSPSFLSAPVGDRVTITCRASQGISSYLAWYQQKPGKAPKLLIYGASTLQSGVPSRFSGSGSGTEFTLTISSLQPEDFATYYCQQLNSYQRFTFGPGTKVEIK	Kd	0.205
anti-SARS-CoV-2 antibody 933 (antibody, V domains shown) VH: QVQLVQSGAEVKKPGASVKVSCKASGYTFTTYDINWVRQATGQGLEWMGWMNPNSGYTDSAQKFQGRVTMTRNTSISTAYMELSSLRSEDTAVYYCASGRGVKTYYFDYWGQGTLVTVSS VL: SYELTQPPSVSVSPGQTASITCSGDKLGDKSACWYQQKPGQSPVLVICQDTKRPSGIPERFSGSNSGNTATLTISGTQAMDEADYYCQAWDSRTVVFGGGTKLTVL	Kd	0.276
anti-SARS-CoV-2 antibody 1012 (antibody, V domains shown) VH: EVQVVESGGGLVQPGGSRRLSCTASGFTLRNYWMSWVRQAPGKGLEWVANIKQDGSEKYYVDSVKGRFTISRDNAKNSLYLQMDSLRAEDTAVYYCARGGRYCPGGSCPRWGRGTLVTVSS VL: DIQMTQSPSSLSASVGDRVTITCQASQDISNFLNWYQLKPGEAPTLLIFDASKLETGVPSRFSGTGFGTDFTFTISSLQPEDTATYYCQQYDDLTSITLGQGTRLEIK	Kd	0.139
anti-SARS-CoV-2 antibody 1000 (antibody, V domains shown) VH: EVQLVESGGGLVQPGRSLRLSCAASGFTFDDYAMHWVRQAPGEGLEWVSGISWNSGSIGYADSVKGRFTISRDNAKNSLYLQMNSLRAEDTALYYCAKDTRFSFGTIAAAVSGYGMDVWGQGTTVTVSS VL: QSALTQPASVSGSPGQSITISCTGTSSDVGIFNLVSWYQQHPGKAPKLMIYEVTKRPSGVSNRFSGSKSGNTASLTISGLQAEDEADYYCCSYAGSYVFGTGTKVTVL	Kd	0.092
anti-SARS-CoV-2 antibody 989 (antibody, V domains shown) VH: QVQLQESGPGLVKPSQTLSLTCTVSGGSISSGSYYWSWIRQPAGKGLEWIGRIYTSGSTNYNPSLKSRVTMSVDTSKNHFSLKLRSVTAADTAVYYCARGIAVAGDDDYYYYYGLDVWGQGTTVTVSS VL: SYELTQPPSVSVSPGQTARITCSGDALPKQYAYWYQQKPGQAPVMVINKDSERPSGIPERFSGSSSGTTVTLTISGVQAEDEADYYCHSADSSGTYWVFGGGTKLTVL	Kd	0.104
anti-SARS-CoV-2 antibody 1081 (antibody, V domains shown) VH: EVQLVQSGAEVKKPGESLKISCKRSGYSFTTYWIGWVRQMPGKGLEWMGSIYPGDSDTRYSPSFQGQVTISADKSISTAYLQWSSLKASDTAMYYCASQEVPGYYYYMDVWGKGTTVTVSS VL: DIQMTQSPSSLSASVGDRVTITCRASQSISSYLHWYQQKPGKAPKLLIYAASSLQSGVPSRFSGSGSGTDFTLTISSLQPEDFATYYCQQTYSTHTWTFGQGTKVEIK	Kd	0.093
anti-SARS-CoV-2 antibody 1091 (antibody, V domains shown) VH: EVQLVESGGGLVKPGGSLRLSCAASGFPFITYSMNWVRQAPGKGLEWVSSISRNSDYIYYADSVRGRVTISRDNAENSLYLQMHSLRAEDTAVYYCARDVVRSGNYYIPRHGMDVWGRGTTVTVSS VL: QSVLTQPPSASGTPGQRVTISCSGTSSNIGSNTVNWYQQLPETAPKLLIYGTDQRPSGVPDRFSGSKSGTSASLAISRLQSEDEADYYCATRDDSLSGPVFGGGTQLTVL	Kd	0.054
anti-SARS-CoV-2 antibody 1015 (antibody, V domains shown) VH: EVQLVESGGGLVQPGGSLRLSCAASGFTFSSYWMHWVRQAPGKGLVWVSHINSDGSSTSYADSVKGRFTISRDNAKNTLYLQMNSLRAEDTAVYYCARGLRYFDLDVWGQGTTVTVSS VL: QSVLTQPPSVSEAPRQRVTISCSGSSSNIGNNAVNWYQQLPGKAPKLLIFYDDLLPSGVSDRFSGSKSGTSASLAISGLQSEDEADYYCAAWDDSLNGGVFGGGTKLTVL	Kd	0.096

The reported numbers originate from patent US20210292393A1.
